Exercise: for every item that follows, state its recorded inhibition at 10 ppm.
# test_target: AtPPO1 S305L Y361C L362F Y426M L479M (SEQ ID NO.134) (Arabidopsis thaliana, UniProt P55826, L479M/S305L/Y361C/Y362F/Y426M)
# Sequence (P55826 35-537 S305L/Y361C/Y362F/Y426M/L479M): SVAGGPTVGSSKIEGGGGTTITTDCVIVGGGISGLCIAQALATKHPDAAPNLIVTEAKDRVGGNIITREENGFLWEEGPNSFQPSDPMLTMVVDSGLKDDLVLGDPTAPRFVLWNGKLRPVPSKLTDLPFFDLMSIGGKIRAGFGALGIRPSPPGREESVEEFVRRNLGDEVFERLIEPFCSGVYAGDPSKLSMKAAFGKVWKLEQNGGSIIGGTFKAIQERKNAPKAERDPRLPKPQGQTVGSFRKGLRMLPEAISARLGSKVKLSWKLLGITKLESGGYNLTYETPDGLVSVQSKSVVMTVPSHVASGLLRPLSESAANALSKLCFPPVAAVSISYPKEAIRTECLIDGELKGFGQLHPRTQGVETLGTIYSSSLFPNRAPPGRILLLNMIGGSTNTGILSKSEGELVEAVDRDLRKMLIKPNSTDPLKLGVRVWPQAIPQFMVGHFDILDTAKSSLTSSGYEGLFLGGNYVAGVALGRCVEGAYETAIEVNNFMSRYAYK
# assay: fluorescent Protoporphyrinogen Oxidase assay, crude extract
# Assay type: biochemical
# applied_conditions: read-out: percentage inhibition
Field format: number, assumed %, no unit text.

Exercise: Which inhibition at 10 ppm is reported for this compound? CCOC(=O)[C@]1(C)CC(c2cc(-n3c(=O)n(C)c(=S)n(C)c3=O)c(F)cc2Cl)=NO1 [Herbicide D]
Solution: 85

Exercise: Which inhibition at 10 ppm is reported for this compound? CCOC(=O)C1(C)CC(c2cc(-n3c(=O)cc(C(F)(F)F)n(C)c3=O)c(F)cc2Cl)=NO1 (centres unmarked) [Herbicide C]
Solution: 99

Exercise: Which inhibition at 10 ppm is reported for this compound? CCOC(=O)COc1ncccc1Oc1cc(-n2c(=O)cc(C(F)(F)F)n(C)c2=O)c(F)cc1Cl [Herbicide A, epyrifenacil]
Solution: 83

Exercise: Which inhibition at 10 ppm is reported for this compound? C#CCN1C(=O)C(F)(F)Oc2cc(F)c(-n3c(=O)n(C)c(=S)n(C)c3=O)cc21 [Herbicide B, trifludimoxazin]
Solution: 100

Exercise: Which inhibition at 10 ppm is reported for this compound? CC(C)N(C)S(=O)(=O)NC(=O)c1cc(-n2c(=O)cc(C(F)(F)F)n(C)c2=O)c(F)cc1Cl [Herbicide E, saflufenacil]
Solution: 80
